Test: Quantum yield of europium complexes at different pH
Assay type: physicochemical
Settings: pH 8; text gives the same values in %

compound	Q.Y. pH 8
CCN(CC)c1cc(C#Cc2cc(CN(CC(=O)O)CC(=O)O)nc(CN(CC(=O)O)CC(=O)O)c2)ccc1OCCCN	0.17%
CCN(CC)c1cc(C#Cc2cc(CN3CCN(Cc4cccc(P(C)(=O)[O-])n4)CCN(Cc4cccc(P(C)(=O)[O-])n4)CC3)nc(P(C)(=O)[O-])c2)ccc1OC.[Eu+3]	0.5%
CCN(CC)c1cc(C#Cc2cc(CN3CCN(Cc4cc(C#Cc5ccc(OC)c(N(CC)CC)c5)cc(P(C)(=O)[O-])n4)CCN(Cc4cc(C#Cc5ccc(OC)c(N(CC)CC)c5)cc(P(C)(=O)[O-])n4)CC3)nc(P(C)(=O)[O-])c2)ccc1OC.[Eu+3]	0.1%
CCN(CC)c1cc(C#Cc2cc(CN3CCN(Cc4cc(C#Cc5ccc(OCCCC(=O)NCCCS(=O)(=O)[O-])c(N(CC)CC)c5)cc(P(C)(=O)[O-])n4)CCN(Cc4cc(CCCNC(=O)OC(C)(C)C)cc(P(C)(=O)[O-])n4)CC3)nc(P(C)(=O)[O-])c2)ccc1OCCCC(=O)NCCCS(=O)(=O)[O-].[Eu+3] [Complex 78a]	0.3%
CCN(CC)c1cc(C#Cc2cc(CN3CCN(Cc4cccc(P(C)(=O)[O-])n4)CCN(Cc4cc(C#Cc5ccc(OC)c(N(CC)CC)c5)cc(P(C)(=O)[O-])n4)CC3)nc(P(C)(=O)[O-])c2)ccc1OC.[Eu+3]	0.2%

---

Assay: Absorption spectra / molar extinction coefficient (Beer-Lambert)
Format: physicochemical
Conditions: molar extinction coefficient at λexc
Recorded ε for the following molecules

molecule	ε [M⁻¹ cm⁻¹]
CCN(CC)c1cc(C#Cc2cc(CN(CC(=O)O)CC(=O)O)nc(CN(CC(=O)O)CC(=O)O)c2)ccc1OCCCN	12000
CCN(CC)c1cc(C#Cc2cc(CN3CCN(Cc4cc(C#Cc5ccc(OC)c(N(CC)CC)c5)cc(P(C)(=O)[O-])n4)CCN(Cc4cc(C#Cc5ccc(OC)c(N(CC)CC)c5)cc(P(C)(=O)[O-])n4)CC3)nc(P(C)(=O)[O-])c2)ccc1OC.[Eu+3]	45000
CCN(CCCS(=O)(=O)O)c1cc(C#Cc2cc(CN3CCN(Cc4cc(C#Cc5ccc(OC)c(N(CC)CCCS(=O)(=O)O)c5)cc(P(C)(=O)O)n4)CCN(Cc4cc(CCCNC(=O)OC(C)(C)C)cc(P(C)(=O)O)n4)CC3)nc(P(C)(=O)O)c2)ccc1OC [Complex 88a]	35000

---

Test: Excited state (emission) lifetime at different pH
Type: physicochemical
Settings: pH 5

molecule	Excited state lifetime
CCN(CCCS(=O)(=O)O)c1cc(C#Cc2cc(CN3CCN(Cc4cc(C#Cc5ccc(OC)c(N(CC)CCCS(=O)(=O)O)c5)cc(P(C)(=O)O)n4)CCN(Cc4cc(CCCNC(=O)OC(C)(C)C)cc(P(C)(=O)O)n4)CC3)nc(P(C)(=O)O)c2)ccc1OC [Complex 88a]	0.76 ms
CCN(CC)c1cc(C#Cc2cc(CN3CCN(Cc4cc(C#Cc5ccc(OC)c(N(CC)CC)c5)cc(P(C)(=O)[O-])n4)CCN(Cc4cc(C#Cc5ccc(OC)c(N(CC)CC)c5)cc(P(C)(=O)[O-])n4)CC3)nc(P(C)(=O)[O-])c2)ccc1OC.[Eu+3] [Complex 21]	0.83 ms
CCN(C)c1cc(C#Cc2cc(CN3CCN(Cc4cc(C#Cc5ccc(OCCCC(=O)NCCCS(=O)(=O)[O-])c(N(C)CC)c5)cc(P(C)(=O)[O-])n4)CCN(Cc4cc(CCCNC(=O)OC(C)(C)C)cc(P(C)(=O)[O-])n4)CC3)nc(P(C)(=O)[O-])c2)ccc1OCCCC(=O)NCCCS(=O)(=O)[O-].[Eu+3] [Complex 78b]	0.77 ms
CCN(CC)c1cc(C#Cc2cc(CN3CCN(Cc4cc(C#Cc5ccc(OCCCC(=O)O)c(N(CC)CC)c5)cc(P(C)(=O)[O-])n4)CCN(Cc4cc(CCCNC(=O)OC(C)(C)C)cc(P(C)(=O)[O-])n4)CC3)nc(P(C)(=O)[O-])c2)ccc1OCCCC(=O)O.[Eu+3] [Complex 77a]	0.95 ms
CCN(CC)c1cc(C#Cc2cc(CN3CCN(Cc4cccc(P(C)(=O)[O-])n4)CCN(Cc4cc(C#Cc5ccc(OC)c(N(CC)CC)c5)cc(P(C)(=O)[O-])n4)CC3)nc(P(C)(=O)[O-])c2)ccc1OC.[Eu+3] [Complex 18]	0.96 ms
